Read-out: Alkaline Phosphatase, Placental (ALPP) gene, ALPP (gene 250)
Experimental protocol: LTEA_HepaRG_ALPP: Life Technologies and Expression Analysis (LTEA) Assay for Alkaline Phosphatase, Placental (ALPP) gene using HepaRG (AID 2283468)
Run conditions: mRNA level, 48 h; actives raise or lower the signal
Method: LTEA_HepaRG is a cell based, multiplexed-readout assay that uses HepaRG, a human liver cell line, with measurements taken at 48 hours after chemical dosing on a 96-well plate.LTEA_HepaRG_ALPP is one of 102 assay component(s) measured in the LTEA HepaRG cell culture assay. It is a marker of Cell proliferation, survival, death.Data from the assay component LTEA_HepaRG_ALPP was analyzed into 1 endpoint. […]
The source made the active and inactive calls. Rule for the calls: active = hit-call score of the fitted dose curve at least 0.9, where 1 is the maximum; inactive = score below 0.9.
// classify into true for active, false for inactive

Molecule	Class name
CC[C@H]1CC[C@H](NCc2cc3c(cc2OC)[C@H]2C[C@H]2C(=O)N3C)[C@H](c2ccccc2)N1	true

IN: So what was the verdict on "COC(=O)c1c(Cl)c(Cl)c(C(=O)OC)c(Cl)c1Cl" in this test?
OUT: false

IN: What outcome does the record of this test show for "CC(=O)OCCC(C)C" ?
OUT: false

IN: Could you kindly confirm the outcome this assay logged for "COCCOc1cc2cc(C(=O)NC3CCN(C(C)C)CC3)n(CC(=O)Nc3ccc(Cl)cn3)c2cn1" ?
OUT: false

IN: Tell me the assay call for "NC(=O)NO" please.
OUT: false

IN: Recorded call for "CC(C)(O)c1coc(S(=O)(=O)NC(=O)Nc2c3c(cc4c2CCC4)CCC3)c1" ?
OUT: false

IN: Could you please tell me the result logged for "Oc1ccc2c(c1)-c1ccccc1C2" in this assay?
OUT: false

IN: Hi team, can someone confirm the assay call for "CCc1cc(SCc2sc(-c3ccc(C(F)(F)F)cc3)nc2CN2CCN(c3ccc(OC)cc3)CC2)ccc1OCC(=O)O" ?
OUT: true

IN: # fetch the recorded call for "CC1(C)C(=O)N(Br)C(=O)N1Br" here
OUT: false

IN: So what was the verdict on "CCCN(C1CCN(C(=O)C2CCNCC2)CC1)[C@@H]1CCc2ccc(OC)cc2C1" in this test?
OUT: true

IN: What outcome does the record of this test show for CCCCC(CC)COC(=O)CCCCCCCCC(=O)OCC(CC)CCCC (stereo unspecified) ?
OUT: false
